pKi: −log10 of the molar value.
Entries with their measured pKi, system UniProt P31652:

# example entries with known answers
INSERT INTO assay_data (compound, obs_value) VALUES
  ('CCC(N)[C@H]1C[C@]1(C(=O)N(CC)CC)c1ccccc1 (stereo in doubt; form 2)', '< 4.00'),
  ('CCN(CC)C(=O)[C@@]1(c2ccccc2)C[C@H]1C(N)c1ccccc1 (stereo partly drawn)', '< 4.00');

Turning to the following compound.
QUERY: Request the reported pKi associated with CCC(N)[C@H]1C[C@]1(C(=O)N(CC)CC)c1ccccc1 (stereo in doubt; form 1)
RESULT: < 4.00
